ASSAYED TARGET: TDO (A172 cells) (Homo sapiens, UniProt P48775)
Construct: This assay utilised cancer cells which expressed either TDO or IDO; host or cells: A172 human glioblastoma cells
Sequence (P48775 whole entry): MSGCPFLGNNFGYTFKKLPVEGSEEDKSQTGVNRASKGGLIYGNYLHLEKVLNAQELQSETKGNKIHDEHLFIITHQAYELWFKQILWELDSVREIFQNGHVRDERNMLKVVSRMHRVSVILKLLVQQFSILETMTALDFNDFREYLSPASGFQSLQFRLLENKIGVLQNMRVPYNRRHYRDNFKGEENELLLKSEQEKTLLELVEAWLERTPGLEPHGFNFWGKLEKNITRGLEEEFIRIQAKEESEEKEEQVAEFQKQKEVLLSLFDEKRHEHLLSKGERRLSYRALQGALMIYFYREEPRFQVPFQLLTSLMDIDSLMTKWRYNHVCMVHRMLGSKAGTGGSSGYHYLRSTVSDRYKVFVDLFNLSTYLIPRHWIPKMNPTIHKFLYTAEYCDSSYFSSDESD
PROCEDURE DETAILS: TDO cell-based assay (A172), kynurenine production
CONDITIONS USED: A172 human glioblastoma cells, 500 μM L-Trp, 48 h, kynurenine by absorbance at 490 nm
READOUT KIND: TDO cellular assay (A172) pIC50

**Query** I have this compound here, Cc1cc(C(C)NC(=O)c2cc3cc(C#N)ccc3[nH]2)no1 (centres unmarked) , and I need its recorded TDO cellular assay (A172) pIC50.
**Result** − (− = pIC50 <4.50)

**Query** I have this compound here, `Cn1cc(C2(NC(=O)c3cc4cc(Cl)ccc4[nH]3)CCOCC2)cn1` , and I need its recorded TDO cellular assay (A172) pIC50.
**Result** − (− = pIC50 <4.50)

**Query** I have this compound here, CC(NC(=O)c1cc2cnccc2[nH]1)c1ccccc1 (centres unmarked) , and I need its recorded TDO cellular assay (A172) pIC50.
**Result** − (− = pIC50 <4.50)
